Tested on: SUP-T1 (T-Lymphoblastic Leukemia);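 further: after 72 h of two-drug dosing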
experiment.description: Bliss excess, mean over the matrix (fraction); higher = more synergy
endpoint.name: Bliss excess
I only need the number, thanks.

Q: Which Bliss excess is reported for this compound? Cc1cc2ncnn2cc1Nc1ncc2c(n1)n(C1CCOCC1)c(=O)n2C [AZD7648] + CCN(CCO)CCCOc1ccc2c(Nc3cc(CC(=O)Nc4cccc(F)c4)[nH]n3)ncnc2c1 [AZD2811] (first compound max 10 µM, 7x7, partner max 1 µM)
A: 0.11

Q: Look up Bliss excess: C[C@@H](Oc1cc(-c2cnn(C3CCNCC3)c2)cnc1N)c1c(Cl)ccc(F)c1Cl [Crizotinib] + CC1=C(C(=CC=C1)Cl)NC(=O)C2=CN=C(S2)NC3=CC(=NC(=N3)C)N4CCN(CC4)CCO [Dasatinib] (first compound max 10 µM, 7x7, partner max 2 µM)
A: -0.009

Q: Endpoint output: Bliss excess of Cn1cnc2c(F)c(Nc3ccc(Br)cc3Cl)c(C(=O)NOCCO)cc21 [Selumetinib] + CCN(CCO)CCCOc1ccc2c(Nc3cc(CC(=O)Nc4cccc(F)c4)[nH]n3)ncnc2c1 [AZD2811] (first compound max 10 µM, 7x7, partner max 1 µM) . Value?
A: 0.0328

Q: Using the record for C[C@@H]1COCCN1c1cc(C2([S@](C)(=N)=O)CC2)nc(-c2ccnc3[nH]ccc23)n1 [AZD6738] + O=C(c1cc(Cc2n[nH]c(=O)c3ccccc23)ccc1F)N1CCN(C(=O)C2CC2)CC1 [Olaparib] (first compound max 10 µM, 7x7, partner max 10 µM) , report its Bliss excess.
A: -0.0289

Q: Would you mind telling me what Bliss excess value was observed for C=CCn1c(=O)c2cnc(Nc3ccc(N4CCN(C)CC4)cc3)nc2n1-c1cccc(C(C)(C)O)n1 [AZD1775] + O=C(c1cc(Cc2n[nH]c(=O)c3ccccc23)ccc1F)N1CCN(C(=O)C2CC2)CC1 [Olaparib] (first compound max 1 µM, partner max 10 µM) ?
A: -0.017

Q: Look up Bliss excess: CC1(C)CCC(CN2CCN(c3ccc(C(=O)NS(=O)(=O)c4ccc(NCC5CCOCC5)c([N+](=O)[O-])c4)c(Oc4cnc5[nH]ccc5c4)c3)CC2)=C(c2ccc(Cl)cc2)C1 [Venetoclax] + Cn1cnc2c(F)c(Nc3ccc(Br)cc3Cl)c(C(=O)NOCCO)cc21 [Selumetinib] (first compound max 1 µM, 7x7, partner max 3 µM)
A: -0.0723

Q: What value of Bliss excess has been reported for the following compound? Cc1c2c(nn1C)CSCc1cc(n(C)n1)CSc1cc(c3ccccc3c1)OCCCc1c(C(=O)O)n(C)c3c-2c(Cl)ccc13 [AZD5991] + C1CN(CCC1(C(=O)N[C@@H](CCO)C2=CC=C(C=C2)Cl)N)C3=NC=NC4=C3C=CN4 [Capivasertib] (first compound max 1 µM, 7x7, partner max 3 µM)
A: -0.0218

Q: Tell me the measured Bliss excess of CCc1c2c(nc3ccc(O)cc13)-c1cc3c(c(=O)n1C2)COC(=O)[C@]3(O)CC [SN-38] + O=C(c1cc(Cc2n[nH]c(=O)c3ccccc23)ccc1F)N1CCN(C(=O)C2CC2)CC1 [Olaparib] (first compound max 0.3 µM, 7x7, partner max 10 µM) , please.
A: 0.0435

Q: Entry Cc1cc2ncnn2cc1Nc1ncc2c(n1)n(C1CCOCC1)c(=O)n2C [AZD7648] + COc1cc([C@@H]2c3cc4c(cc3[C@@H](O[C@@H]3O[C@@H]5CO[C@@H](C)O[C@H]5[C@H](O)[C@H]3O)[C@H]3COC(=O)[C@H]23)OCO4)cc(OC)c1O [Etoposide] (first compound max 10 µM, 7x7, partner max 10 µM) has what Bliss excess?
A: 0.07

Q: Looking for the measured Bliss excess of Cn1cnc2c(F)c(Nc3ccc(Br)cc3Cl)c(C(=O)NOCCO)cc21 [Selumetinib] + C=CCn1c(=O)c2cnc(Nc3ccc(N4CCN(C)CC4)cc3)nc2n1-c1cccc(C(C)(C)O)n1 [AZD1775] (first compound max 10 µM, partner max 1 µM) , can you help?
A: -0.0663

Q: What does the data say about its Bliss excess? Entry: C[C@@H](c1ccc2nccn2c1)n1nnc2ncc(-c3cnn(C)c3)nc21 [Savolitinib] + Cc1c2c(nn1C)CSCc1cc(n(C)n1)CSc1cc(c3ccccc3c1)OCCCc1c(C(=O)O)n(C)c3c-2c(Cl)ccc13 [AZD5991] (first compound max 1 µM, 7x7, partner max 1 µM)
A: -0.0571

Q: Which Bliss excess value is on record for COc1cccc2c1C(=O)c1c(O)c3c(c(O)c1C2=O)C[C@@](O)(C(=O)CO)C[C@@H]3O[C@H]1C[C@H](N)[C@H](O)[C@H](C)O1 [Doxorubicin] + Cc1cc2ncnn2cc1Nc1ncc2c(n1)n(C1CCOCC1)c(=O)n2C [AZD7648] (first compound max 1 µM, 7x7, partner max 10 µM) ?
A: 0.0368

Q: Need Bliss excess, item N#Cc1cnc(Nc2cc(NC[C@H]3CNCCO3)c(C(F)(F)F)cn2)cn1 [SRA737] + Nc1ccn([C@@H]2O[C@H](CO)[C@@H](O)C2(F)F)c(=O)n1 [Gemcitabine] (first compound max 10 µM, 7x7, partner max 0.3 µM)
A: -0.0658

Q: Need Bliss excess of CS(=O)(=O)CCNCc1ccc(-c2ccc3ncnc(Nc4ccc(OCc5cccc(F)c5)c(Cl)c4)c3c2)o1 [Lapatinib] + NC1(c2ccc(-c3nc4ccn5c(=O)[nH]nc5c4cc3-c3ccccc3)cc2)CCC1 [MK-2206] (first compound max 10 µM, 7x7, partner max 10 µM) , thanks.
A: -0.0215

Values were extracted from the supplement of paper PMC11061612.
